Tested on: PPARg:RXRa (NR concentration 180 nM, RXRa partner concentration 90 nM)
Experiment: PBM binding z-score (relative to random genomic background probes); higher = stronger binding; sequences stand for … in GC…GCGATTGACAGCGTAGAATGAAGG

{"sequenceChain": "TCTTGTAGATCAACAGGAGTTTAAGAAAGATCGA", "PBM binding z-score": 0.0426}
{"sequenceChain": "CGTCCAAGGTCAGCATGTCAGTGAAAGCGACGTG", "PBM binding z-score": 2.43}
{"sequenceChain": "GCATATAGGTAATACAAGGTTAAAGTCCGATTGT", "PBM binding z-score": 1.69}
{"sequenceChain": "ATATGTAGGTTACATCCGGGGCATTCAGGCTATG", "PBM binding z-score": 5.17}
{"sequenceChain": "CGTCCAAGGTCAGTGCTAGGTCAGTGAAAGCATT", "PBM binding z-score": 1.44}
{"sequenceChain": "CCTAGTTGGTCAGGAGTTCACACACCGGATATGA", "PBM binding z-score": 1.24}
{"sequenceChain": "GATACAGGGTCAGCTAGAGGCCTGAGTATGGAAA", "PBM binding z-score": 3.02}
{"sequenceChain": "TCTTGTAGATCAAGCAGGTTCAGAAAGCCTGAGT", "PBM binding z-score": -0.504}
{"sequenceChain": "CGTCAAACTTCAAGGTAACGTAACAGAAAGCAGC", "PBM binding z-score": 0.645}
{"sequenceChain": "GCTAGATGGTCAGTAAAAGGTCACACACCGGTCG", "PBM binding z-score": 2.79}
{"sequenceChain": "CTTCCAAGGTCATAGGAGGTCAGTGAAGACAGAT", "PBM binding z-score": 5.71}
{"sequenceChain": "AGTCAAAGATCAGGACGAGGTAACGTAAAGCACG", "PBM binding z-score": 1.18}
{"sequenceChain": "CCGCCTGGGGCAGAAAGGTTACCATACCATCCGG", "PBM binding z-score": 0.804}
{"sequenceChain": "ACTAGCAGGCCAAGTTTGGGTCACTCAAACAAAG", "PBM binding z-score": 0.094}
{"sequenceChain": "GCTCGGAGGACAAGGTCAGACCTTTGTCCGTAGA", "PBM binding z-score": 1.88}
{"sequenceChain": "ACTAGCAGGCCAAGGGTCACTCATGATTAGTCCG", "PBM binding z-score": 7.52}
{"sequenceChain": "GGAACGAGGGCAAGTTGATAACAGAGTTTGATGG", "PBM binding z-score": 1.52}
{"sequenceChain": "CCGAGTAAGTTATGGGGCATTCAGGCAACGGTGA", "PBM binding z-score": 0.19}
{"sequenceChain": "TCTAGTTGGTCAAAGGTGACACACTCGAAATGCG", "PBM binding z-score": 8.48}
{"sequenceChain": "ATCTCTAGGCAAGACTCAGTTCAGTGAAGAACGC", "PBM binding z-score": 0.011}
{"sequenceChain": "CCTGCTAGGTCAATGGTCAGCTTAAGCAGCTCGC", "PBM binding z-score": 4.41}
{"sequenceChain": "CCGGCTGGGGCAGAAAGGTTACCATACCATCCGG", "PBM binding z-score": 0.79}
{"sequenceChain": "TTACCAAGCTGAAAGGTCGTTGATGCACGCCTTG", "PBM binding z-score": 1.29}
{"sequenceChain": "ACAACGAGGGCAATGAGTTGATAGCACGGGTGGC", "PBM binding z-score": 1.33}
{"sequenceChain": "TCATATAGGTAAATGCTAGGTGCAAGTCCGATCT", "PBM binding z-score": 0.562}
{"sequenceChain": "CCAGACAGATGAAAGGTAACTCAGTCTGGTACGC", "PBM binding z-score": 0.879}
{"sequenceChain": "ATCTCTAGGTAACAAGTTCATTGAAAGAGAGGAC", "PBM binding z-score": 2.82}
{"sequenceChain": "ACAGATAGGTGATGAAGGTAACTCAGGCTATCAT", "PBM binding z-score": 0.643}
{"sequenceChain": "AGAATGAGGTTACCAAAGATCCGGGAAACGCTTG", "PBM binding z-score": 2.5}
{"sequenceChain": "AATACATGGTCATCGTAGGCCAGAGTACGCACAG", "PBM binding z-score": 1.22}
{"sequenceChain": "CCTTACGGGTCACTGAAAGGTTATAGCATTTGGA", "PBM binding z-score": 5.13}
{"sequenceChain": "TGAATGAGCTTAAAGATCAGGGAACGTGGCGTCG", "PBM binding z-score": 0.39}
{"sequenceChain": "ATCTCTAGGTAAAGATAGTTCCGTGAATGCAAAT", "PBM binding z-score": 0.326}
{"sequenceChain": "ATCGAAAGGTCGTAAGGTGAGTATACAGAAAGGC", "PBM binding z-score": 3.45}
{"sequenceChain": "GATACAGGGACAAGGCCAGAGTACGCGTATTGAT", "PBM binding z-score": 0.946}
{"sequenceChain": "TGAATGAGTTTAAAGATCAGGGAACGTGGCGTCG", "PBM binding z-score": 0.824}
{"sequenceChain": "GCTAACGGGTCAAAGGTTATAGCATGAATAGAAT", "PBM binding z-score": 10.4}
{"sequenceChain": "CCTTACGGGTCACTCACAGGTTATAGCATTTGGA", "PBM binding z-score": 4.15}
{"sequenceChain": "ATACCAAGGTGATCGGGAGGTCGTTGATACTAAC", "PBM binding z-score": 0.591}
{"sequenceChain": "TCATATCGGTAAACAGGTGAAAGTCCGTAAGTTA", "PBM binding z-score": 1.04}
